- TARGET_UNDER_TEST: Heparanase (Homo sapiens) (UniProt Q9Y251)
- Sequence (whole entry): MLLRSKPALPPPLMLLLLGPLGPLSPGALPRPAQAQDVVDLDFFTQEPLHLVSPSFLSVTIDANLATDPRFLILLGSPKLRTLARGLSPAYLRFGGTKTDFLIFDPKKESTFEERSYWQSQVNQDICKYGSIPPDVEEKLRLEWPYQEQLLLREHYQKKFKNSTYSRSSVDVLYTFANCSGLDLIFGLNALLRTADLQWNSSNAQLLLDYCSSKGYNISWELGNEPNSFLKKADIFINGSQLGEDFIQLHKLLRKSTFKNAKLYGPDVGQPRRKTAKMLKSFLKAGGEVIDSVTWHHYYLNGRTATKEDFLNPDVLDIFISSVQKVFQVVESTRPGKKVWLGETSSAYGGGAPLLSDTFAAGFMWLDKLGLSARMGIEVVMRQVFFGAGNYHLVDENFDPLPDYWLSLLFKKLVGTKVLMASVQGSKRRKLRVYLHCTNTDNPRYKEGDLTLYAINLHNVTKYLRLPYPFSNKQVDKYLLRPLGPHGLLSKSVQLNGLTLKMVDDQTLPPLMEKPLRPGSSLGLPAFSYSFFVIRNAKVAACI
- PROTOCOL: Inhibition of HPSE in human HT1080 cells assessed as reduction in MMP9 mRNA expression after 24 hrs by qPCR analysis relative to control
- Assay type: cell-based
The source made the active and inactive calls. The calls are words filed in the database; no cut-off is given here.
READOUT_NAME: inhibition

Prompt line: Quote inhibition reported for O=C(O)CNC(=O)Cc1ccc2oc(-c3ccc(NC(=O)Nc4ccc(-c5nc6cc(CC(=O)NCC(=O)O)ccc6o5)cc4F)c(F)c3)nc2c1 please.
Response line: < 40%

Prompt line: Note down inhibition recorded for O=C(O)CNC(=O)Cc1ccc2oc(-c3ccc(NC(=S)Nc4ccc(-c5nc6cc(CC(=O)NCC(=O)O)ccc6o5)cc4F)c(F)c3)nc2c1
Response line: < 40%

Prompt line: Give inhibition for the following compound: COc1ccc(C(=O)Nc2ccc(CNc3ccc(-c4nc5cc(CC(=O)O)ccc5[nH]4)cc3F)cc2)cc1Br
Response line: Active

Prompt line: Query inhibition for O=C(O)Cc1ccc2oc(-c3ccc(NC(=O)Nc4ccc(-c5nc6cc(CC(=O)O)ccc6o5)cc4F)c(F)c3)nc2c1
Response line: Active

* * *

- TARGET_UNDER_TEST: Heparanase (Homo sapiens) (UniProt Q9Y251)
- PROTOCOL: Inhibition of HPSE in human HT1080 cells assessed as reduction in FGF1 mRNA expression after 24 hrs by qPCR analysis relative to control; further: test concentration or dose not given here
- Assay type: cell-based
The source made the active and inactive calls. The rule behind the calls is not given here.
READOUT_NAME: inhibition

Prompt line: Indicate the recorded inhibition value for this molecule: O=C(O)CNC(=O)Cc1ccc2oc(-c3ccc(NC(=O)Nc4ccc(-c5nc6cc(CC(=O)NCC(=O)O)ccc6o5)cc4F)c(F)c3)nc2c1
Response line: < 40%

Prompt line: Find the measured inhibition of O=C(O)CNC(=O)Cc1ccc2oc(-c3ccc(NC(=S)Nc4ccc(-c5nc6cc(CC(=O)NCC(=O)O)ccc6o5)cc4F)c(F)c3)nc2c1 and report it.
Response line: < 40%

Prompt line: Give recorded inhibition. O=C(O)Cc1ccc2oc(-c3ccc(NC(=O)Nc4ccc(-c5nc6cc(CC(=O)O)ccc6o5)cc4F)c(F)c3)nc2c1
Response line: Active

Prompt line: Assign inhibition to the following record: COc1ccc(C(=O)Nc2ccc(CNc3ccc(-c4nc5cc(CC(=O)O)ccc5[nH]4)cc3F)cc2)cc1Br
Response line: Active
